- Test system: AncSZ
- Test method notes: phosphorylation enrichment, bacterial display (enrichment ratio); higher = better substrate or ligand; peptides without Tyr show the background
Property measured: phosphorylation enrichment
Please respond with just the number, no unit label.

INSERT INTO measurements (ordered_residues, system_under_test, observed_measurement) VALUES
  ('AHAGEYGVEAL [HBA1_Y25_A27V]', 'AncSZ', 0.83),
  ('YRIDHYLGKEM [G6PD_Y202]', 'AncSZ', 0.716),
  ('TLQNMYGCDVG [HLA-B_Y123_S121N]', 'AncSZ', 0.886),
  ('QDRTFYESVRT [SPEN_Y633_YF]', 'AncSZ', 1.1),
  ('YCRIMYDIFPF [INTS13_Y67]', 'AncSZ', 1.85);

Need phosphorylation enrichment, item ARTNEYKIIRS [INA_Y87_T92S]
0.435

So what's the measured phosphorylation enrichment for this one? VFGVSYDEFRF [CFTR_Y512_I507V_YF]
1.09

----------
phosphorylation enrichment for assorted sequences
- Test system: AncSZ
- Test method notes: phosphorylation enrichment, bacterial display (enrichment ratio); higher = better substrate or ligand; peptides without Tyr show the background

Known phosphorylation enrichment results, listed for orientation:
INSERT INTO assay_data (ordered_residues, observed_measurement) VALUES
  ('ADRNHYRRYPR [YBX1_Y145]', 0.613),
  ('MGGSLYFSFPD [HIKESHI_Y55_V54L_YF]', 2.27),
  ('SSVPDYLAAVD [GLB1_Y154_D151V]', 1.63);

Okay, now this sequence:
Which phosphorylation enrichment reading was recorded for the sequence EDEGLYMVRVP [MYOM3_Y343] ?
1.58

----------
Below: a set of entries, each annotated with reported SH2 binding enrichment.
- System under test: c-Src SH2;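 note: peptide library displayed on the E. coli surface as eCPX fusions, selected cells deep-sequenced, score is each peptide's frequency after selection divided by its frequency in the input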
- Test method notes: SH2 binding enrichment of the phosphorylated peptide, bacterial display (enrichment ratio); higher = better substrate or ligand; peptides without Tyr show the background
Response field accepts a number only; no unit should be typed.

INSERT INTO results (ordered_residues, system_under_test, property_measured, observed_measurement) VALUES
  ('MACDRYVAICS [OR8D4_Y123]', 'c-Src SH2', 'SH2 binding enrichment', 7.31),
  ('VMAVAYRLAEQ [HK1_Y461_T457M]', 'c-Src SH2', 'SH2 binding enrichment', 0.685),
  ('IIGNGYYFRVF [MYBPC3_Y1135]', 'c-Src SH2', 'SH2 binding enrichment', 0.472),
  ('FTYDPYSEEEP [IL2RB_Y387_D391E]', 'c-Src SH2', 'SH2 binding enrichment', 0.817);

Can you share its SH2 binding enrichment? I mean this sequence: WRPFGYPRRRR [BCS1L_Y181]
0.349

----------
// values below are reported phosphorylation enrichment
- System under test: Jak2 (UniProt O60674)
- Sequence (O60674 whole entry, looked up): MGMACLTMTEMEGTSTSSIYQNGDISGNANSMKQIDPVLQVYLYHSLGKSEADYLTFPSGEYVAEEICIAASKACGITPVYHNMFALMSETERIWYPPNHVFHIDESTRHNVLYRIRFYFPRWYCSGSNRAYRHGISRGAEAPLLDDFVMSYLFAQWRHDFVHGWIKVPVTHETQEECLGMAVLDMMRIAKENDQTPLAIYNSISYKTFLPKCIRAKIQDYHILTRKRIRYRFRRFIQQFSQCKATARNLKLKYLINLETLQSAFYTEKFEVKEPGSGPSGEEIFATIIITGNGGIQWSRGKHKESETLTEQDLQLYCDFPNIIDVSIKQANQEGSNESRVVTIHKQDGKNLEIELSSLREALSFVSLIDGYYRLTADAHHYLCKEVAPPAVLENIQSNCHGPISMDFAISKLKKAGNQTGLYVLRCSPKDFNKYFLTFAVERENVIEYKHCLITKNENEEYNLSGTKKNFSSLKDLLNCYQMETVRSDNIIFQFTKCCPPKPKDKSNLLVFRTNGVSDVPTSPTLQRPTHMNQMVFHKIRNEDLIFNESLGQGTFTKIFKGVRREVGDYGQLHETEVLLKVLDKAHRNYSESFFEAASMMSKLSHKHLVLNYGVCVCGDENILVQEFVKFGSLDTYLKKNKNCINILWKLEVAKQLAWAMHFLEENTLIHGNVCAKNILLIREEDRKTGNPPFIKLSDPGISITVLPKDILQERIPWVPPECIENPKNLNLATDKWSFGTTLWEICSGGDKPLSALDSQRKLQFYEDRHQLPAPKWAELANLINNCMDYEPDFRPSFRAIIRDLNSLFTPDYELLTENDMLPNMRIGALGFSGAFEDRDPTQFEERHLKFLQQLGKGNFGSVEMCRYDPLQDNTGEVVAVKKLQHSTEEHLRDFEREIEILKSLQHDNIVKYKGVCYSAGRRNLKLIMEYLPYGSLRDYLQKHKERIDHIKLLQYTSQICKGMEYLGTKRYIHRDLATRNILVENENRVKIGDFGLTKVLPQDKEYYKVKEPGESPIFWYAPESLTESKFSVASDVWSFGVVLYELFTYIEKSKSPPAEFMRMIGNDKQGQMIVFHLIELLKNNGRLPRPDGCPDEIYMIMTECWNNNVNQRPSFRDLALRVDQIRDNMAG
- Test method notes: phosphorylation enrichment, bacterial display (enrichment ratio); higher = better substrate or ligand; peptides without Tyr show the background
// return just the number, without any unit appended

In the examples that follow, each entry is paired with its recorded phosphorylation enrichment.
INSERT INTO assay_data (ordered_residues, property_measured, observed_measurement) VALUES
  ('SNKLHYQLEQE [PDPR_Y110_Y109H]', 'phosphorylation enrichment', 0.699),
  ('KLKNAYEESLE [MYH7_Y1488]', 'phosphorylation enrichment', 0.908);

Now consider the entry below.
Name the recorded phosphorylation enrichment for FPIDHYLGKEM [G6PD_Y202_R198P_YF] .
0.685
